system: α7 integrin promoter; test: muscle cell-based assay: α7βgal+/− myoblasts/myotubes, LacZ reporter, β-galactosidase cleavage of FDG; parameters: species or system mouse
As shown below, each of these compounds has a reported Fit Curve Class value.

compound: O=Cc1cn(Cc2ccc(F)cc2Cl)c2ccccc12
Fit Curve Class: 2.1

compound: Br.COc1ccc(C(=O)CN2CCCCC2)cc1
Fit Curve Class: 2.1

compound: Cc1nn(C(C)(C)C)c(C)c1/C=N/OC(=O)Nc1ccc(Cl)c(Cl)c1
Fit Curve Class: 1.1

compound: CNP(=O)(Oc1ccccc1)OC12CC3CC(CC(C3)C1)C2 (centres unmarked)
Fit Curve Class: 2.1

compound: Cc1nc2c([nH]1)OC(N)=C(C#N)C21CCN(Cc2ccccc2)CC1
Fit Curve Class: 2.1

compound: O=C(Cn1nc(-c2ccc(Cl)cc2)ccc1=O)N1CCC2(CC1)OCCO2
Fit Curve Class: 2.2

compound: O=C(O)CCn1cc(/C=C2/NC(=S)N(c3ccccc3)C2=O)c(-c2ccccc2)n1
Fit Curve Class: 2.1

compound: NS(=O)(=O)c1ccc(NC(=O)Nc2ccc(Cl)cc2)cc1
Fit Curve Class: 2.2

###

As shown below, each of these compounds has a reported Result in α7+/− β-galactosidase assay value.
tested on: α7 integrin promoter; test: muscle cell-based assay: α7βgal+/− myoblasts/myotubes, LacZ reporter, β-galactosidase cleavage of FDG; design: species or system mouse; details: Myoblasts, 5 uM

compound: O=C1Nc2ccccc2/C1=C1\Nc2ccccc2C1=O [drawing 716]
Result in α7+/− β-galactosidase assay: −0.394

compound: CC(=O)Oc1c(Cl)cc(/C=C2\C(=O)Nc3ccccc32)cc1Cl [drawing 714]
Result in α7+/− β-galactosidase assay: 0.02082

compound: Cn1ccc(C(=O)Nc2cccnc2Cl)n1 [drawing 710]
Result in α7+/− β-galactosidase assay: 0.0569

compound: CCN(CC)CCNC(=O)c1c(C)[nH]c(CC2C(=O)Nc3ccc(F)cc32)c1C (stereo not shown) [drawing 715]
Result in α7+/− β-galactosidase assay: −0.6776

compound: COc1c(Cl)cc(/C=C2\C(=O)Nc3ccccc32)cc1Cl [drawing 712]
Result in α7+/− β-galactosidase assay: 0.01335

compound: CCOC(=O)c1sc(=N)n(-c2ccc(OC)cc2)c1C [drawing 711]
Result in α7+/− β-galactosidase assay: −0.01196

compound: O=C1Nc2ccccc2/C1=C1/Nc2ccccc2/C1=N\O [drawing 726]
Result in α7+/− β-galactosidase assay: −0.1537

compound: Cc1cc(C)c(/C=C2\C(=O)Nc3ccccc32)[nH]1 [drawing 721]
Result in α7+/− β-galactosidase assay: −0.2468

compound: Cc1[nH]c(/C=C2\C(=O)Nc3ccccc32)c(C)c1CCC(=O)O [drawing 717]
Result in α7+/− β-galactosidase assay: −0.0938

compound: COc1c(Cl)cc(/C=C2\C(=O)Nc3ccccc32)cc1Cl [drawing 713]
Result in α7+/− β-galactosidase assay: −0.0815

###

As shown below, each of these compounds has a reported Results in a α7+/− β-galactosidase assay, Myotubes, 5 uM value.
system: α7 integrin promoter; assay: muscle cell-based assay: α7βgal+/− myoblasts/myotubes, LacZ reporter, β-galactosidase cleavage of FDG; design: species or system mouse; settings: Myotubes; compound at 5 uM
recorded.metric: Results in a α7+/− β-galactosidase assay, Myotubes, 5 uM

compound: Cc1ccc2c(c1)/C(=C/c1ccccc1C)C(=O)N2 [drawing 350]
target.system: α7 integrin promoter
result: −0.04071
--
compound: Cc1noc(C)c1COc1ccc(C(=O)NCCc2ccccn2)cc1 [drawing 386]
target.system: α7 integrin promoter
result: −0.04323
--
compound: Cc1cccc(Cn2cnc3c(nnn3Cc3ccc(Cl)cc3)c2=O)c1 [drawing 450]
target.system: α7 integrin promoter
result: −0.09823
--
compound: Cc1ccccc1NC(=O)NCCCN1CCN(C)CC1 [drawing 329]
target.system: α7 integrin promoter
result: −0.02688
--
compound: CSc1ccc(S(=O)(=O)NCc2ccccc2)cc1 [drawing 382]
target.system: α7 integrin promoter
result: 0.02007
--
compound: CCn1c(=O)c2cc(C(=O)N(C)c3cc(C)ccc3OC)sc2c2ccccc21 [drawing 428]
target.system: α7 integrin promoter
result: −0.1965
--
compound: CC1(C)Cc2ccccc2-c2nc3n(c(=O)c21)CCS3 [drawing 380]
target.system: α7 integrin promoter
result: −0.04079
--
compound: CCc1nc2ccccc2c(C(=O)NCc2ccccc2)c1C [drawing 461]
target.system: α7 integrin promoter
result: 0.438
--
compound: O=C(N[C@@H](Cc1c[nH]c2ccccc12)C(=O)O)C1CCN(S(=O)(=O)c2cccs2)CC1 [drawing 414]
target.system: α7 integrin promoter
result: 0.03594

###

As shown below, each of these compounds has a reported Fit Curve Class value.
Test system: α7 integrin promoter
Assay: muscle cell-based assay: α7βgal+/− myoblasts/myotubes, LacZ reporter, β-galactosidase cleavage of FDG
Design: species or system mouse
Conditions: curve class number, key not given
Method: An α7 integrin null mouse was produced in which exon 1 of the gene encoding the α7 integrin was replaced by the LacZ reporter. […] A primary myoblast cell line (designated α7βgal^+/−) isolated from 10 day old α7^+/− pups were analyzed for the ability of β-galactosidase to report α7 integrin expression. α7βgal^+/− myoblasts were differentiated and subjected to X-gal staining and western analysis (FIGS. 1A and 1B). […]

compound: CC(C(=O)Nc1ccc(C#N)cc1)N(C)CC(=O)Nc1cccc(F)c1 (stereo not shown) [Compound 186]
Fit Curve Class: 2.1
--
compound: NS(=O)(=O)c1ccc(NC(=O)c2ccc(CNS(=O)(=O)c3cc(C(F)(F)F)ccc3Cl)cc2)cc1 [Compound 207]
Fit Curve Class: 2.2
--
compound: O=C(CCc1ccccc1)c1nnc(-c2ccccc2)o1 [Compound 183]
Fit Curve Class: 2.1
--
compound: COC(=O)c1ccc(C2C(C(=O)c3cc4ccccc4o3)=C(O)C(=O)N2CCN2CCOCC2)cc1 (stereo not shown) [Compound 141]
Fit Curve Class: 2.1
--
compound: COc1cc2c(cc1OC)C(NC(=O)C(F)(F)F)C/C2=N\O (stereo not shown) [Compound 193]
Fit Curve Class: 2.1
--
compound: COc1ccc(S(=O)(=O)Nc2ccc(S(=O)(=O)Nc3nccs3)cc2)cc1 [Compound 152]
Fit Curve Class: 2.2
--
compound: CCCN1C2CCCC1CC(NC(=O)c1cccc([N+](=O)[O-])c1)C2 (stereo not shown) [Compound 164]
Fit Curve Class: 2.1
--
compound: CCCC(=O)Nc1ccccc1NC(=O)c1ccc(OCC)cc1 [Compound 206]
Fit Curve Class: 2.1
--
compound: CCCCC(C(=O)NC1CCCC1)N(C(=O)c1snc(C(N)=O)c1N)c1ccc(C)cc1 (stereo not shown) [Compound 151]
Fit Curve Class: 2.1
--
compound: N#Cc1ccc(OCC(O)CS(=O)(=O)c2ccccc2)cc1 (stereo not shown) [Compound 195]
Fit Curve Class: 2.1
--
compound: COc1ccccc1C(=O)NCCOc1ccc(C(C)(C)C)cc1 [Compound 168]
Fit Curve Class: 2.2
--
compound: COc1ccc(N2CCN(CCC3Oc4cc([N+](=O)[O-])ccc4NC3=O)CC2)cc1 (stereo not shown) [Compound 194]
Fit Curve Class: 2.2
--
compound: CN(C)/C(S)=N/c1cccc(C(F)(F)F)c1 [Compound 172]
Fit Curve Class: 2.2
--
compound: O=C(NCCCn1ccnc1)/C(=C/c1cccs1)NC(=O)c1ccco1 [Compound 124]
Fit Curve Class: 2.1
--
compound: Cc1ccccc1C(=O)Nc1nnc(SC(C)C)s1 [Compound 196]
Fit Curve Class: 2.2
--
compound: N=C(NOC(=O)COc1cc(Cl)c(Cl)cc1Cl)c1ccncc1 [Compound 125]
Fit Curve Class: 2.1
--
compound: Cc1nnc(NC(=O)CSc2nnc(CCNC(=O)c3ccccc3F)n2C)s1 [Compound 147]
Fit Curve Class: 2.1
--
compound: C=CCn1c(COc2ccc(Cl)cc2)nnc1SCc1ccc(C#N)cc1 [Compound 220]
Fit Curve Class: 2.1
--
compound: N#Cc1ccc(Sc2nc3ccccc3[nH]2)cc1C#N [Compound 218]
Fit Curve Class: 2.2

###

tested on: α7 integrin promoter; experiment: muscle cell-based assay: α7βgal+/− myoblasts/myotubes, LacZ reporter, β-galactosidase cleavage of FDG; parameters: species or system mouse; conditions: Table 12; key not given

compound: CCCS(=O)(=O)N1CCCC(C(=O)c2cccc(Cl)c2)C1 (stereo not drawn) [Compound 84]
Fit Curve Class: 2.1
--
compound: COc1ccc(C(=O)ONC(=N)c2cccc(C)c2)cc1OC [Compound 78]
Fit Curve Class: 2.1
--
compound: CN(CC(=O)Nc1cccc(F)c1)C(=O)c1ccc(-c2ccc(Cl)cc2)o1 [Compound 90]
Fit Curve Class: 2.1
--
compound: C/N=C(\S)N1CCC(NC(=O)C(Cc2ccc(F)cc2)NC(C)=O)CC1 (stereo not drawn) [Compound 82]
Fit Curve Class: 2.1
--
compound: COC(=O)C1=C(C)N=C(C)/C(=C(/O)OC)C1c1ccccc1OCc1c(C)no[n+]1[O-] (stereo not drawn) [Compound 12]
Fit Curve Class: 1.1
--
compound: O=C1SC(Cc2ccccc2)C(=O)N1c1ccccc1 (stereo not drawn) [Compound 50]
Fit Curve Class: 2.1
--
compound: Cc1c(C(=O)O)cccc1-n1c(C)cc(/C=N/Nc2ccc([N+](=O)[O-])cn2)c1C [Compound 9]
Fit Curve Class: 1.1
--
compound: Cc1cc(NC(=O)CCC(=O)N(Cc2cccnc2)C(C(=O)NC(C)(C)C)c2ccccc2Cl)no1 (stereo not drawn) [Compound 29]
Fit Curve Class: 1.1
--
compound: O=[N+]([O-])c1ccc(N2CCN(c3ccccc3F)CC2)nc1 [Compound 49]
Fit Curve Class: 2.1
--
compound: CS(=O)(=O)c1ccc(Cl)c(NC(=O)CSc2nncn2-c2ccccc2)c1 [Compound 55]
Fit Curve Class: 2.1
--
compound: COc1ccc(N2CCCC2)c(NC(=O)c2ccc([N+](=O)[O-])o2)c1 [Compound 46]
Fit Curve Class: 2.1
--
compound: COCCSc1ccccc1C(=O)Nc1cc(C)cc(C)c1 [Compound 22]
Fit Curve Class: 1.1
--
compound: CC(C)/N=C(\S)NN=C1CCCCCCCCCCC1 [Compound 36]
Fit Curve Class: 1.2
--
compound: O=C(Nc1cc(Br)ccc1O)C1CC(c2ccccc2Cl)=NO1 (stereo not drawn) [Compound 108]
Fit Curve Class: 2.1
--
compound: Cc1ccc(OCC(=O)N2CCN(S(=O)(=O)c3ccc4c(c3)OCCO4)CC2)c(C)c1 [Compound 27]
Fit Curve Class: 1.1
--
compound: COc1cccc(C(=O)NCC(=O)N2CCC3(CC2)NCCc2[nH]cnc23)c1 [Compound 93]
Fit Curve Class: 2.1
--
compound: CC1CCCCC12NC(=O)N(CC(=O)OCc1cccc(F)c1)C2=O (stereo not drawn) [Compound 67]
Fit Curve Class: 2.1
--
compound: O=C(NC1CCCC1)c1ccc(CS(=O)(=O)Cc2ccccc2F)o1 [Compound 7]
Fit Curve Class: 1.1
